# Tested on: PPARg:RXRa 30nM:10nM, anti-RXR (NR concentration 30 nM, RXRa partner concentration 10 nM)
# PROTOCOL_NOTES: PBM binding z-score (relative to random genomic background probes); higher = stronger binding; sequences stand for … in GC…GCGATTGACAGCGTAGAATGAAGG

{"SEQUENCE_RECORD": "AATACAGGGTCATCGTAGCCCAGAGTACGCACAG", "PBM binding z-score": 3.25}
{"SEQUENCE_RECORD": "TCATTTAGGTAAACAGGTGAAAGTCCGTAAGTTA", "PBM binding z-score": 4.42}
{"SEQUENCE_RECORD": "TAGCCTAGCTCATGGGCCAGTATACCACGCGAAC", "PBM binding z-score": -0.762}
{"SEQUENCE_RECORD": "AGAATGAGGTTACCAAAGACCAGGGAAACGCTTG", "PBM binding z-score": 0.863}
{"SEQUENCE_RECORD": "ATCTCTAGGTAAAGTTCAGTGAGAGATCGATAGA", "PBM binding z-score": 2.06}
{"SEQUENCE_RECORD": "CGTCCAAGGTCAATGCTAGGTCAGTGCAAGCATT", "PBM binding z-score": 0.996}
{"SEQUENCE_RECORD": "ATCTCTAGGTAAGAGTCAGTTCAGTGAAGAACGC", "PBM binding z-score": 0.45}
{"SEQUENCE_RECORD": "CGAACTAGGTCATCCACGACAGTGAATACATTGA", "PBM binding z-score": 4.01}
{"SEQUENCE_RECORD": "GATACAGGGTCACGGCCAGAGTACGCGTATTGAT", "PBM binding z-score": 3.93}
{"SEQUENCE_RECORD": "TCTAGTTGATCAAAGGTCACACACTCGAAATGCG", "PBM binding z-score": 7.94}
{"SEQUENCE_RECORD": "CCTACTGGGCCAAAAAGGTCAATGATGCCGATAA", "PBM binding z-score": 1.55}
{"SEQUENCE_RECORD": "GTTACAGGGTCAGCTAGAGGCCAGAGTATGGAAA", "PBM binding z-score": 0.837}
{"SEQUENCE_RECORD": "GCTCGGAGGACAAGGTCAGAGGTTTGTCCGTAGA", "PBM binding z-score": 0.214}
{"SEQUENCE_RECORD": "ATATGTAGGTTAGCTTGGGTCATTCAGACTAGGC", "PBM binding z-score": 1.32}
{"SEQUENCE_RECORD": "ACAGACAGGTGAGTAAAGGTAACTCAGCTGGACG", "PBM binding z-score": 0.681}
{"SEQUENCE_RECORD": "CTCGAAAGGTCGGTGGAGGTGAGTATACGGATAA", "PBM binding z-score": 0.0571}
{"SEQUENCE_RECORD": "ATCGAAAGGTCGAAGGTGAGTATCCCCACCCGAA", "PBM binding z-score": 2.04}
{"SEQUENCE_RECORD": "CAAGCTAGGTCACGAAAGGTCAAAGTCGAATGAC", "PBM binding z-score": 4.23}
{"SEQUENCE_RECORD": "CAAACTAGGTCACGAAAGGTCAAACTCGAATGAC", "PBM binding z-score": 6.95}
{"SEQUENCE_RECORD": "ACAGACAGGTGCTGAAGGTAACTCAGGCTATCAT", "PBM binding z-score": -0.203}

Taken from the supplement of paper PMC6555819.
